Data origin, for the record: patent US10307404B1

procedureText: PK of topical ocular sodium phosphate-based Gel Drop, concentrations 1 hour after last dose
Type: in vivo, Dutch-belted rabbits
conditionSet: Dutch-belted, rabbit, choroid, 2 mg/ml, pH 5.9, 2 mg/ml pH 5.9 Phos 0.05% BAK 0.005% Gly 2% Osmo 233, 3x/day 5 days, read-out: MEAN [choroid]
property: concentration at 1 h (µM)
Report the value in µM with no unit label.

The measured concentration at 1 h associated with Cl.NC(=O)c1c(OCc2c(F)cc(Br)cc2F)nsc1NC(=O)NCCCCN1CCCC1 [Compound-I, hydrochloride] reads 0.362

###

procedureText: PK of topical ocular sodium phosphate-based Gel Drop, concentrations 1 hour after last dose
Type: in vivo, Dutch-belted rabbits
conditionSet: Dutch-belted, rabbit, plasma, 6 mg/ml, pH 5.9, 6 mg/ml pH 5.9 Phos 0.05% BAK 0.005% Gly 2% PS80 1% Tylox 0.1% Polox 0.2% Osmo 270, 3x/day 4 days, read-out: [plasma]
property: concentration at 1 h (nM)
Report the value in nM with no unit label.

The measured concentration at 1 h associated with Cl.NC(=O)c1c(OCc2c(F)cc(Br)cc2F)nsc1NC(=O)NCCCCN1CCCC1 [Compound-I, hydrochloride] reads 15.6
